# system: UniProt P30411
# Sequence (P30411 whole entry): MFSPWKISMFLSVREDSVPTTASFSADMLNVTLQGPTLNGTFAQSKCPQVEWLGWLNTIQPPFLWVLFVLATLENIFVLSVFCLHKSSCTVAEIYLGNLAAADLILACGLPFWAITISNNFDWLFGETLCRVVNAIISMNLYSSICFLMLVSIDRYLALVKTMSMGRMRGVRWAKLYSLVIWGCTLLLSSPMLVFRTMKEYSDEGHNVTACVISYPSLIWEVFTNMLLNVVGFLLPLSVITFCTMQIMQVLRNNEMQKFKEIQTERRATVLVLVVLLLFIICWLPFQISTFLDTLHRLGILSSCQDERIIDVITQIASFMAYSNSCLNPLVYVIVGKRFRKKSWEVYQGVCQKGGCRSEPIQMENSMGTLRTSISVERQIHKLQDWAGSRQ
# assay remarks: Inhibition specific binding of [3H]BK (1.0 nM) to human Bradykinin receptor B2 which was expressed in CHO (Chinese hamster ovary) cells by 50%.
# Format: cell-based
metric: IC50 (nM)
Give bare numbers, in nM.

Known IC50 results, listed for orientation:
CCn1c(C)nc2c(OCc3c(Cl)ccc(N(C)C(=O)CNC(=O)/C=C/c4ccc(C(=O)NC)cc4)c3Cl)cccc21; 48
CNC(=O)c1ccc(/C=C/C(=O)NCC(=O)N(C)c2ccc(C)c(COc3cccc4c3nc(N(C)C)n4C)c2C)cc1; 160
CC(=O)Nc1ccc(/C=C/C(=O)NCC(=O)N(C)c2ccc(C)c(COc3cccc4ccc(C)nc34)c2C)cn1; 8.5
Cc1ccc2cccc(OCc3c(Cl)ccc(N(C)C(=O)CNC(=O)/C=C/c4cccnc4)c3Cl)c2n1; 470
Cc1ccc2cccc(OCc3c(Cl)ccc(N(C)C(=O)CNC(=O)/C=C/c4ccccc4)c3Cl)c2n1; 340
CNC(=O)c1ccc(/C=C/C(=O)NCC(=O)N(C)c2ccc(C)c(COc3cccc4c3nc(C(C)=O)n4C)c2C)cc1; 94
CNC(=O)c1ccc(/C=C/C(=O)NCC(=O)N(C)c2ccc(C)c(COc3cccc4ccc(C)nc34)c2C)cc1; 4.8
Cc1ccc2cccc(OCc3c(Cl)ccc(N(C)C(=O)CNC(=O)/C=C/c4ccc(NC(=O)c5ccncc5)nc4)c3Cl)c2n1; 2.8
Cc1ccc2cccc(OCc3c(Cl)ccc(N(C)C(=O)CNC(=O)/C=C/c4ccc(C(=O)Nc5ccncc5)nc4)c3Cl)c2n1; 2.5
Cc1ccc2cccc(OCc3c(C)ccc(N(C)C(=O)CNC(=O)/C=C/c4ccc(N5CCCC5=O)cc4)c3C)c2n1; 9.3

Required: IC50, one value per compound below.
1. Cc1ccc2cccc(OCc3c(Cl)ccc(N(C)C(=O)CNC(=O)/C=C/c4ccc(C(=O)N(C)C)cc4)c3Cl)c2n1
2. CNC(=O)c1ccc(/C=C/C(=O)NCC(=O)N(C)c2ccc(Cl)c(COc3cccn4c(Br)c(C)nc34)c2Cl)cc1
3. CNC(=O)c1ccc(/C=C/C(=O)NCC(=O)N(C)c2ccc(Cl)c(COc3cccc4c3nc(C)n4C)c2Cl)cc1
4. CC(=O)Nc1ccc(/C=C/C(=O)NCC(=O)N(C)c2ccc(Cl)c(COc3cccc4ncc(C)nc34)c2Cl)cc1

1: 3.9; 2: 9; 3: 67; 4: 2.5

Required: IC50, one value per compound below.
1. Cc1cnc2cccc(OCc3c(Cl)ccc(N(C)C(=O)CNC(=O)/C=C/c4ccc(C(=O)N(C)C)cc4)c3Cl)c2n1
2. Cc1ccc2cccc(OCc3c(Cl)ccc(N(C)C(=O)CNC(=O)/C=C/c4ccc(N5CCCC5=O)nc4)c3Cl)c2n1
3. COc1nc2c(OCc3c(C)ccc(N(C)C(=O)CNC(=O)/C=C/c4ccc(NC(C)=O)nc4)c3C)cccc2n1C

[44, 5.2, 8.5]

Required: IC50, one value per compound below.
1. Cc1cnc2cccc(OCc3c(C)ccc(N(C)C(=O)CNC(=O)/C=C/c4ccc(N5CCCC5=O)cc4)c3C)c2n1
2. CNC(=O)c1ccc(/C=C/C(=O)NCC(=O)N(C)c2ccc(Cl)c(COc3cccc4c(C)c(C)oc34)c2Cl)cc1
3. Cc1ccc2cccc(OCc3c(Cl)ccc(N(C)C(=O)CNC(=O)/C=C/c4ccc(/C=C/c5ccncc5)nc4)c3Cl)c2n1

46
270
0.51

Required: IC50, one value per compound below.
1. CCc1nc2c(OCc3c(Cl)ccc(N(C)C(=O)CNC(=O)/C=C/c4ccc(C(=O)NC)cc4)c3Cl)cccc2n1C
2. Cc1cnc2cccc(OCc3c(C)ccc(N(C)C(=O)CNC(=O)/C=C/c4ccc(C(=O)N(C)C)cc4)c3C)c2n1
3. Cc1cnc2cccc(OCc3c(Cl)ccc(N(C)C(=O)CNC(=O)/C=C/c4ccc(N5CCCC5=O)cc4)c3Cl)c2n1
4. CNC(=O)c1ccc(/C=C/C(=O)NCC(=O)N(C)c2ccc(Cl)c(COc3cccc4ccc(C)nc34)c2Cl)cc1
5. CNC(=O)c1ccc(/C=C/C(=O)NCC(=O)N(C)c2ccc(C)c(COc3cccc4ncc(C)nc34)c2C)cn1
6. CCOC(=O)Cc1nc2c(OCc3c(C)ccc(N(C)C(=O)CNC(=O)/C=C/c4ccc(C(=O)NC)cc4)c3C)cccc2n1C
7. CC(=O)Nc1ccc(/C=C/C(=O)NCC(=O)N(C)c2ccc(Cl)c(COc3cccc4ccc(C)nc34)c2Cl)cn1
8. CNC(=O)c1ccc(/C=C/C(=O)NCC(=O)N(C)c2ccc(C)c(COc3cccc4c3nc(SC)n4C)c2C)cc1

22
130
26
1.1
590
8400
1.4
79

Required: IC50, one value per compound below.
1. Cc1ccc2cccc(OCc3c(C)ccc(N(C)C(=O)CNC(=O)/C=C/c4ccc(N5CCCC5=O)nc4)c3C)c2n1
2. CNC(=O)c1ccc(/C=C/C(=O)NCC(=O)N(C)c2ccc(Cl)c(COc3cccnc3-n3c(C)ccc3C)c2Cl)cc1

[39, 2000]
